The reported measurements were obtained from patent US20250034170A1.

# target_entity: GCase (Homo sapiens)
# Construct: endogenous in cells; host or cells: HeLa cells
# Sequence (P04062 40-536): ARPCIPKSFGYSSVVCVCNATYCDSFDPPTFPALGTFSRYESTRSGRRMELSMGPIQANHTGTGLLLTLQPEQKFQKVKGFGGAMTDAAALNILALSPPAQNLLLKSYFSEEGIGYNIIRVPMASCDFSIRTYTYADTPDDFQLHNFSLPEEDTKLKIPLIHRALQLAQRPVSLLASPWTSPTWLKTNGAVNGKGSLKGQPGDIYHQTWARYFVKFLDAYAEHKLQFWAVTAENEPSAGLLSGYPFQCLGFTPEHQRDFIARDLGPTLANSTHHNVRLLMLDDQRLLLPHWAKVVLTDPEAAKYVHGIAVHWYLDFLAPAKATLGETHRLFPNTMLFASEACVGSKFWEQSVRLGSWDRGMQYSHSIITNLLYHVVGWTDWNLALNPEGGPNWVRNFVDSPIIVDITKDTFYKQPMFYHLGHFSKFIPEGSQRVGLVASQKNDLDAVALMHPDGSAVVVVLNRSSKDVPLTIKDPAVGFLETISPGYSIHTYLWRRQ
# experiment_notes: activation of GCase in a live cell PFB assay in HELA cells
# Assay type: cell-based
# conditions: activation of GCase, EC50 ranges
# Protocol: Exemplary compounds were evaluated for activation of GCase in a live cell PFB assay in HELA cells (essentially as described in Ysselstein et al., “LRRK2 kinase activity regulates lysosomal glucocerebrosidase in neurons derived from Parkinson's disease patients” Nature Communications (2019) 10:5570). […] EC50 ranges: A: <10 μM; B: >10-50 μM; C: >50-100 μM; D: >100 μM.
pEC50: −log10 of the molar value.
# pEC50 annotations

Field: example entries. Status: answers known.
{"columns": ["molecule", "pEC50"],
 "data": [
  ["FC(F)Cn1ncc2ncc(N3CCCC4(CC(Oc5ccnc(C(F)(F)F)c5)C4)C3)nc21 (stereo not drawn) [Compound 13]", "4.30 to 5.00"],
  ["O=C1CC2(CCN(c3cccc(C(F)(F)F)n3)CC2)CN1c1cnc2cnn(CC(F)F)c2n1 [Compound 100]", "4.30 to 5.00"],
  ["FC(F)Cn1ncc2ncc(N3CCCC4(C3)CN(c3cnccc3C(F)(F)F)C4)nc21 [Compound 17]", "4.30 to 5.00"],
  ["O=C1CC2(CCN(c3ccc(C(F)(F)F)cn3)CC2)CN1c1cnc2cnn(CC(F)F)c2n1 [Compound 112]", "4.30 to 5.00"],
  ["Cc1nc(N2CC3(CCN(c4cnc5c(C)nn(CC(C)(F)F)c5n4)C3)C2)cc(C(F)(F)F)n1 [Cmpd 1128]", "4.30 to 5.00"],
  ["FC(F)Cn1ncc2ncc(N3CCCC4(CCN(c5cccnc5C(F)(F)F)C4)C3)nc21 (stereo not drawn) [Compound 5]", "> 5.00"],
  ["O=C1CC2(CCN(c3cnc4cnn(C5COC5)c4n3)CC2)CN1c1cnc(C(F)(F)F)cn1 [Cmpd 862]", "< 4.00"],
  ["Fc1cnc(C(F)(F)F)cc1N1CCC2(CCN(c3cnc4cnn(CC(F)F)c4n3)CC2)C1 [Cmpd 741]", "> 5.00"],
  ["FC(F)(F)c1ccc(N2CCC3(CCN(c4cncc(N5CCOCC5)n4)CC3)C2)cn1 [Cmpd 249]", "4.30 to 5.00"],
  ["Cc1nn(CC(F)F)c2nc(N3CCC4(CCN(c5ccnc(C(F)(F)F)c5)C4=O)C3)cnc12 (stereo not drawn) [Cmpd 514]", "> 5.00"]
]}

Please report the recorded pEC50 for FC(F)(F)c1cc(N2CC3(CCN(c4cnc5cnn(C[C@H]6CCO6)c5n4)C3)C2)ccn1 [Cmpd 934] . > 5.00

Please report the recorded pEC50 for FC(F)(F)c1ccc(N2CC3(CCN(c4cnc5cnn(C6COC6)c5n4)C3)C2)cn1 [Cmpd 660] . 4.30 to 5.00
